Measured Kd, listed per entry for reference.
Biological target: UniProtKB P62937
Sequence (P62937 whole entry): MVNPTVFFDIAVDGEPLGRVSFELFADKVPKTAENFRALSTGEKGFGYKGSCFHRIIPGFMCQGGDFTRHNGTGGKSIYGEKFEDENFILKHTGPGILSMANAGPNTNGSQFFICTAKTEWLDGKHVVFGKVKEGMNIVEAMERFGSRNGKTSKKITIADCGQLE
Assay: CYPA-compound binary complex formation by SPR
Details: read-out: CYPA Binding Affinity
Text: In order to determine the affinity of compounds of the invention for cyclophilin A (CYPA), we employed surface plasmon resonance binding analysis using the following reagents, instruments and protocol as supplied by the instrument manufacturer. Reagents and Instrument • 1. Instrument: Biacore S200 (GE Healthcare Life Sciences) • 2. Running buffer: 1×HBS-P+ (1×HBS supplemented with 0.05% Tween20), pH7.4, and 2% DMSO. • 3. Ligand: CypA-Avi • 4. […]

[
  {
    "compound": "CC(C)[C@@H](C(=O)N[C@H]1Cc2cc(O)cc(c2)-c2ccc3c(CCC#N)cn(c3c2)CC(C)(C)COC(=O)[C@@H]2CCCN(N2)C1=O)N(C)C(=O)C1CN(C(=O)CCl)C1",
    "systemName": "UniProtKB P62937",
    "Kd": "≤ 5 µM"
  },
  {
    "compound": "Cc1nc2ccc3cc2n1CC(C)(C)COC(=O)[C@@H]1CCCN(N1)C(=O)[C@@H](NC(=O)[C@H](C(C)C)N(C)C(=O)CNC(=O)CCl)Cc1cc(O)cc-3c1",
    "systemName": "UniProtKB P62937",
    "Kd": "5 to 15 µM"
  },
  {
    "compound": "C#CCOCc1cc2ccc3cc2n1C[C@H](C)COC(=O)[C@@H]1CCCN(N1)C(=O)[C@@H](NC(=O)[C@H](C(C)C)N(C)C(=O)C1CN(C(=O)CCl)C1)Cc1cc(O)cc-3c1",
    "systemName": "UniProtKB P62937",
    "Kd": "5 to 15 µM"
  },
  {
    "compound": "CC(C)[C@@H](C(=O)N[C@H]1Cc2cc(O)cc(c2)-c2ccc3c(C4CC4)cn(c3c2)C[C@H](C)COC(=O)[C@@H]2CCCN(N2)C1=O)N(C)C(=O)C1CN(C(=O)CCl)C1",
    "systemName": "UniProtKB P62937",
    "Kd": "5 to 15 µM"
  },
  {
    "compound": "COCc1nc2ccc3cc2n1CC(C)(C)COC(=O)[C@@H]1CCCN(N1)C(=O)[C@@H](NC(=O)[C@H](C(C)C)N(C)C(=O)C1CN(C(=O)CCl)C1)Cc1cc(O)cc-3c1",
    "systemName": "UniProtKB P62937",
    "Kd": "5 to 15 µM"
  },
  {
    "compound": "C=CC(=O)N1CCC(C(=O)N(C)C(C(=O)NC2Cc3cc(O)cc(c3)-c3ccc4cc(-c5ccccc5COC)n(c4c3)CC(C)(C)COC(=O)C3CCCN(N3)C2=O)C(C)C)C1 (stereo not shown)",
    "systemName": "UniProtKB P62937",
    "Kd": "5 to 15 µM"
  }
]

Would you mind telling me what Kd value was observed for CC1COC(=O)C2CCCN(N2)C(=O)C(NC(=O)C(C(C)C)N(C)C(=O)C2CN(C(=O)CCl)C2)Cc2cc(O)cc(c2)-c2ccc3c(c2)N(C1)CC3(C)CCC#N (mixture of isomers) ? ≤ 5 µM

Given Cc1cnn(C)c1-c1cn2c3cc(ccc13)-c1cc(O)cc(c1)C[C@H](NC(=O)[C@H](C(C)C)N(C)C(=O)C1CN(C(=O)CCl)C1)C(=O)N1CCC[C@H](N1)C(=O)OCC(C)(C)C2 , state its recorded Kd. 5 to 15 µM

Values were extracted from patent US20240139185A1.
